Hey, just so you know, these numbers are from ChEMBL document CHEMBL1201862.

Test system: KM-20L2
testName: NCI tumour cell line growth inhibition, 48 h
The source made the active and inactive calls. No stated cut-off is given here; in the data, active = GI50 up to about 1.1 µM and inactive = higher.
For each of the compounds below, state its GI50.

Record summary for CC(=O)Oc1cc(OC(C)=O)c(OC(C)=O)c2c1CC1C(=O)C3(CCc4ccccc43)C(=O)C1C2 (stereo unspecified) : reported GI50 = 22.8 µM (inactive)

Record summary for "CC(C)N(C(=O)C12CC3CC(CC(C3)C1)C2)C(C)C" : reported GI50 = > 50 µM (inactive)

Record summary for CC1=CP(=O)(OC(C)C)C=C(C)C1=C(Cl)Cl (stereo unspecified) : reported GI50 = 39.1 µM (inactive)

Record summary for "CC(C)OP(=O)(OC(C)C)/C(=N/Nc1ccc([N+](=O)[O-])cc1)NCCO" : reported GI50 = 85.7 µM (inactive)

Record summary for "CCCCCCCCCCCC(=O)OCCOCCOCCOCCOCCOCc1ccccc1" : reported GI50 = > 100 µM (inactive)

Record summary for "O=C1C=C(Nc2ccc(Cl)cc2Cl)c2ccccc2C1=O" : reported GI50 = > 100 µM (inactive)

Record summary for COC(=O)C1=CCON(c2ccccc2)C1c1ccccc1 (stereo unspecified) : reported GI50 = 69.8 µM (inactive)

Record summary for O=C(O)C1OC(Oc2cc(O)c3c(=O)cc(-c4ccc(O)cc4)oc3c2)C(O)C(O)C1O (stereo unspecified) : reported GI50 = > 100 µM (inactive)

Record summary for COC(=O)C(Br)C1CCc2ccccc21 (stereo unspecified) : reported GI50 = > 100 µM (inactive)

Record summary for "Cn1cc(C(=O)/C(Cl)=C(\Cl)C(=O)O)c2ccccc21" : reported GI50 = > 100 µM (inactive)

Record summary for "CCOc1ccccc1/N=N/c1ccc2oc(=O)c(C(C)=O)cc2c1" : reported GI50 = > 100 µM (inactive)
